# target-or-system: 5-hydroxytryptamine receptor 2C (Rattus norvegicus, UniProt P08909)
# Sequence (P08909 whole entry): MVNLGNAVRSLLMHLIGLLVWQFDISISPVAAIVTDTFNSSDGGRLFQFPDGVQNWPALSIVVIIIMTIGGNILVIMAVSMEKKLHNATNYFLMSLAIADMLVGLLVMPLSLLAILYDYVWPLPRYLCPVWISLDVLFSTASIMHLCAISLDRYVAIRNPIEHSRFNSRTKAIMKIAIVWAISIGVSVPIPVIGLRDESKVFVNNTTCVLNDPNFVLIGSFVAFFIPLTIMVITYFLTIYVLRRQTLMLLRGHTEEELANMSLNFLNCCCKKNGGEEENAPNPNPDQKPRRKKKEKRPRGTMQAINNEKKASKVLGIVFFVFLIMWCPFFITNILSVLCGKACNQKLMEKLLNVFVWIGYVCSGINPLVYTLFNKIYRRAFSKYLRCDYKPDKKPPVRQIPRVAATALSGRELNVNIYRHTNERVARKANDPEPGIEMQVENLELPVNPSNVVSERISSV
readout-type: pKi
// pKi: -log10(molar conc.)

Reading of pKi for Oc1cc2c(cc1O)[C@H]1c3ccccc3CN[C@@H]1CC2 [DIHYDREXIDINE] with 5-hydroxytryptamine receptor 2C (Rattus norvegicus, UniProt P08909): 5.62

###

# target-or-system: D(2) dopamine receptor (Homo sapiens)
# Sequence (P14416 whole entry): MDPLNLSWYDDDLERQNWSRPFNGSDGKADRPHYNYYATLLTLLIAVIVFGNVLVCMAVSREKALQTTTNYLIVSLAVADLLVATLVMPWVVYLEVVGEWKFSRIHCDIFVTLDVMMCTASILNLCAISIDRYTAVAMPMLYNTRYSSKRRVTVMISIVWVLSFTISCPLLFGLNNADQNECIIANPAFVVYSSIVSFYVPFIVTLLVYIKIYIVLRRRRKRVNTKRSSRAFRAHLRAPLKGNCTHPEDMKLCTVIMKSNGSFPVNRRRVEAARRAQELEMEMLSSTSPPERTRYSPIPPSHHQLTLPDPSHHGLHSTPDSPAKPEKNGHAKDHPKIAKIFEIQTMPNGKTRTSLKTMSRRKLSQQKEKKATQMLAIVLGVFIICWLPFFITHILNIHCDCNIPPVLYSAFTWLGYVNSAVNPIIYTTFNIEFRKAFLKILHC
# protocol-text: Binding affinity against cloned human Dopamine receptor D2 using [3H]spiperone as radioligand transfected in LTK cells
readout-type: pKi
// pKi: -log10(molar conc.)

Here is how some compounds turned out for pKi.
{"columns": ["smiles-record", "target-or-system", "pKi"],
 "data": [
  ["NC[C@@H]1O[C@H](C23CC4CC(CC(C4)C2)C3)Cc2c1ccc(O)c2O", "D(2) dopamine receptor (Homo sapiens)", 5.81],
  ["CCCc1cc2c(s1)CN[C@@H]1CCc3cc(O)c(O)cc3[C@@H]21", "D(2) dopamine receptor (Homo sapiens)", 6.15]
]}

Could you now look at the following compound, please?
Record summary for CCCc1cc2c(s1)CN[C@H]1CCc3cc(O)c(O)cc3[C@H]21 : reported pKi = 5.40
